test system: PIM3; conditions: concentration: 1 μM, replicates: in singlicate; n = 1;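 further: KINOMEscan kinase panel screen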
ENDPOINT: %Inh
Write the quantity with the unit trailing the number.

Examples with answers:
MOLECULE	ENDPOINT	RESULT_VALUE
Cc1c2ccc(N(C)c3ccnc(Nc4cccc(S(N)(=O)=O)c4)n3)cc2nn1Cc1ccccc1.Cl.Cl [GW787226]	%Inh	0%
NCC(NC(=O)c1cc(-c2cn[nH]c2)c(-c2ccnc3[nH]ccc23)s1)c1ccccc1.O=C(O)C(F)(F)F.O=C(O)C(F)(F)F (stereo not shown) [GSK1325775]	%Inh	41%

Query :: Bench note: what %Inh did CC(C)(CN)c1nc(-c2ccc(Cl)c(O)c2)c(-c2ccncc2)[nH]1.O=C(O)C(F)(F)F [SB-477794] show?
Result :: 0%

Query :: Try the molecule COC(=O)Nc1nc2cc(Oc3ccc(NC(=O)Nc4cc(F)ccc4F)cc3)ccc2[nH]1.Cl [GW701424]
Result :: 2%

Query :: Try the molecule O=C(c1ccc(-c2cc(-c3c[nH]nc3-c3ccccn3)ccn2)cc1)N1CCOCC1 [GW812171]
Result :: 15%
